Values from patent US20100190980A1

Experimental System: human liver GK (Homo sapiens, UniProt P35557)
Construct: GST (Glutathione S-transferase) (N)
Sequence (P35557 1-466 isoform P35557-2): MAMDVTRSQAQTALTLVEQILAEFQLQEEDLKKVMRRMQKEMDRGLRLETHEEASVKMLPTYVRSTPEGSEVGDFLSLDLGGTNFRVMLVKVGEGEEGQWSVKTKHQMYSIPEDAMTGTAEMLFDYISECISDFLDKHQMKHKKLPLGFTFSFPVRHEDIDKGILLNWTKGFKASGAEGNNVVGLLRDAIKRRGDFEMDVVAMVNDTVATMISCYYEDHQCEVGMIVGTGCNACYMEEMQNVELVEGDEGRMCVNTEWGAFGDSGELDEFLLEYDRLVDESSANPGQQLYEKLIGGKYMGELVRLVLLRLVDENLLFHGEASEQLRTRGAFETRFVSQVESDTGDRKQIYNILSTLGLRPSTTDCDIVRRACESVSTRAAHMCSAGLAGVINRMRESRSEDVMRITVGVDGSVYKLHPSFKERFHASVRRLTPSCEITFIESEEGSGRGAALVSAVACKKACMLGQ
Assay Text: GK Activation Test
Condition Context: concentration activating GK to 50% of the maximum activation value; 4 mM 14C-labeled glucose
Reported EC50 values follow for various molecules
Measured Quantity: EC50 (nM)

[
  {
    "Molecule": "O=C(NC1=NCCS1)c1nc(Sc2nnc[nH]2)cnc1Sc1ccc(F)cc1 [Compound No. 25]",
    "Measured Quantity": "EC50",
    "Unit Descriptor": "nM",
    "Measured Value": 365
  },
  {
    "Molecule": "O=C(O)c1ccc(NC(=O)c2nc(Sc3nnc[nH]3)cnc2Sc2ccc(F)cc2)nc1 [Compound No. 35]",
    "Measured Quantity": "EC50",
    "Unit Descriptor": "nM",
    "Measured Value": 72.4
  },
  {
    "Molecule": "Cc1nnc(Sc2cnc(Sc3ccc(S(C)(=O)=O)cc3)c(C(=O)Nc3ccn(C)n3)n2)[nH]1 [Compound No. 52]",
    "Measured Quantity": "EC50",
    "Unit Descriptor": "nM",
    "Measured Value": 128
  },
  {
    "Molecule": "CSc1ccc(Sc2ncc(Sc3nnc(N)[nH]3)nc2C(=O)Nc2cnccn2)cc1 [Compound No. 51]",
    "Measured Quantity": "EC50",
    "Unit Descriptor": "nM",
    "Measured Value": 131
  }
]
